Data credit: patent US7417156B2

- System: 786-0
- method-notes: NCI 60 cell line panel screen (SRB)
- Assay type: cell-based, human
- condition: 786-0 (Renal Cancer); LC50: PG=−50
Answer each item with its documented Log10LC50.

Some solved entries appear below for comparison.
>  <compound>
C[C@@H]1CC[C@H]2[C@@H](C)C(CC(O)(CC3OC4O[C@]5(C)CC[C@H]6[C@H](C)CC[C@@H]([C@H]3C)C46OO5)c3ccc(C(=O)O)cc3)OC3O[C@]4(C)CCC1C32OO4 (stereo partly drawn) [Compound 11b]

>  <observed>
>−4.30 log10M

$$$$
>  <compound>
C[C@@H]1CC[C@H]2[C@@H](C)C(CC(O)(COC(=O)CCC(=O)O)CC3OC4O[C@]5(C)CC[C@H]6[C@H](C)CC[C@@H]([C@H]3C)C46OO5)OC3O[C@]4(C)CCC1C32OO4 (stereo partly drawn) [Compound 9, tertiary alcohol primary succinate ester]

>  <observed>
>−4.30 log10M

$$$$

// next item, Log10LC50 requested
Prompt: Reported Log10LC50, compound C[C@@H]1CC[C@H]2[C@@H](C)C(=O)O[C@@H]3O[C@]4(C)CC[C@@H]1[C@]32OO4 : ____
Response: >−4.00 log10M

###

Answer each item with its documented Log10LC50.
- System: MCF7
- method-notes: NCI 60 cell line panel screen (SRB)
- Assay type: cell-based, human
- condition: MCF7 (Breast Cancer); LC50: PG=−50
Numbers only, in log10M.

>  <molecule>
CC1CCC2C(C)C(CC(O)(CO)CC3OC4OC5(C)CCC6C(C)CCC(C3C)C46OO5)OC3OC4(C)CCC1C32OO4 (stereo not shown)

>  <observation-type>
Log10LC50

>  <observed>
−4.22

$$$$

// next item, Log10LC50 requested
Prompt: Reported Log10LC50, molecule CC1CCC2C(C)C(CC(COC(=O)c3cc[n+]([O-])cc3)CC3OC4OC5(C)CCC6C(C)CCC(C3C)C46OO5)OC3OC4(C)CCC1C32OO4 (stereo not shown) : ____
Response: −4.44

###

- System: NCI-H460
- method-notes: NCI 60 cell line panel screen (SRB)
- Assay type: cell-based, human
- condition: NCI-H460 (Non-Small Cell Lung Cancer); TGI: PG=0
observation-type: Log10TGI50

Some solved entries appear below for comparison.
>  <molecule>
C[C@@H]1CC[C@H]2[C@@H](C)C(CC(O)(CC3OC4O[C@]5(C)CC[C@H]6[C@H](C)CC[C@@H]([C@H]3C)C46OO5)c3ccc(C(=O)O)cc3)OC3O[C@]4(C)CCC1C32OO4 (some centres unmarked) [Compound 11b]

>  <Log10TGI50>
>−4.30 log10M

$$$$
>  <molecule>
CC1CCC2C(C)C(CC(COC(=O)CCC(=O)O)CC3OC4OC5(C)CCC6C(C)CCC(C3C)C46OO5)OC3OC4(C)CCC1C32OO4 (centres unmarked) [Compound 8a, bis-trioxane primary succinate monoester]

>  <Log10TGI50>
>−4.30 log10M

$$$$
>  <molecule>
CC1CCC2C(C)C(CC(COCC(=O)O)CC3OC4OC5(C)CCC6C(C)CCC(C3C)C46OO5)OC3OC4(C)CCC1C32OO4 (centres unmarked) [Compound 12b, bis-trioxane O-acetic acid]

>  <Log10TGI50>
>−4.30 log10M

$$$$
>  <molecule>
C[C@@H]1CC[C@H]2[C@@H](C)C(=O)O[C@@H]3O[C@]4(C)CC[C@@H]1[C@]32OO4 [Artemisinin]

>  <Log10TGI50>
>−4.00 log10M

$$$$

// next item, Log10TGI50 requested
Prompt: Reported Log10TGI50, molecule C[C@@H]1CC[C@H]2[C@@H](C)C(CC(O)(COC(=O)CCC(=O)O)CC3OC4O[C@]5(C)CC[C@H]6[C@H](C)CC[C@@H]([C@H]3C)C46OO5)OC3O[C@]4(C)CCC1C32OO4 (some centres unmarked) [Compound 9, tertiary alcohol primary succinate ester] : ____
Response: >−4.30 log10M
